- measured-target: recombinant human CXCR2 (Homo sapiens, UniProt P25025)
- Construct: TEV protease site; Gal4-VP16 transcription factor
- Sequence (P25025 1-360): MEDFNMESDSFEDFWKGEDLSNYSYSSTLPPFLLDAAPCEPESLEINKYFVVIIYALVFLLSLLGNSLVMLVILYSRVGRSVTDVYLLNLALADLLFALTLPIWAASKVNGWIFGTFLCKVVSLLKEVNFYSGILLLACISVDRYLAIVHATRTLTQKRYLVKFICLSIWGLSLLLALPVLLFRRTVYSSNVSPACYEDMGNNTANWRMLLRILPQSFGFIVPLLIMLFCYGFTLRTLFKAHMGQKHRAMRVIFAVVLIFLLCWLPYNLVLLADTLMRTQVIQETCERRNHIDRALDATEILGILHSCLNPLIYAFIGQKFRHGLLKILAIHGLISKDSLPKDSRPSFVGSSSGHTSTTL
- test-summary: CXCR2 Tango assay
- Type: cell-based
- cond: mean pIC50 of multiple test results; stimulated with 80 nM hCXCL1; reporter gene blue/green emission ratio; read-out: pIC50 (CXCR2 Tango assay) (converted)
Where a name gives a salt, the structure may show the parent alone.
Could you please report measured IC50 for the items listed next?

stdin: Find the recorded IC50 belonging to COC[C@H]1C[C@H](S(=O)(=O)c2c(Cl)ccc(NC(=O)NC3CCC=C3C)c2O)C1 (stereo partly shown) [Compound 153] and report it.
stdout: ≤ 10 nM

stdin: Find the recorded IC50 belonging to CN(C)[C@H]1CC[C@@H](S(=O)(=O)c2c(Cl)ccc(NC(=O)NC3CCC=C3Cl)c2O)CC1 (stereo partly shown) [Compound 130, trifluoroacetic acid salt] and report it.
stdout: ≤ 1 nM

stdin: Find the recorded IC50 belonging to CC1=CCCC1NC(=O)Nc1ccc(Cl)c(S(=O)(=O)C(C)(F)F)c1O (stereo not shown) [Compound 106] and report it.
stdout: ≤ 1 nM

stdin: Find the recorded IC50 belonging to CC1=CCC[C@H]1NC(=O)Nc1ccc(Cl)c(S(=O)(=O)N2CCC(O)CC2)c1O [Compound 89] and report it.
stdout: ≤ 1 nM

stdin: Find the recorded IC50 belonging to [2H]C([2H])([2H])C1(S(=O)(=O)c2c(Cl)ccc(NC(=O)N[C@@H]3CCC=C3Cl)c2O)CCOC1 (stereo partly shown) [Compound 183] and report it.
stdout: ≤ 10 nM

stdin: Find the recorded IC50 belonging to CC1=CCCC1NC(=O)Nc1ccc(Cl)c(S(=O)(=O)C2CCc3nccn3C2)c1O (stereo not shown) [Compound 108, trifluoroacetic acid salt] and report it.
stdout: ≤ 10 nM

stdin: Find the recorded IC50 belonging to CC1=CCC[C@H]1NC(=O)Nc1ccc(Cl)c(S(=O)(=O)[C@H]2C[C@H](F)C2)c1O [Compound 50] and report it.
stdout: ≤ 1 nM
